Ref: paper PMC4661536

Target: FUS-RRM-RanBP2 (Homo sapiens, UniProt P35637 282-454)
Sequence (P35637 282-454): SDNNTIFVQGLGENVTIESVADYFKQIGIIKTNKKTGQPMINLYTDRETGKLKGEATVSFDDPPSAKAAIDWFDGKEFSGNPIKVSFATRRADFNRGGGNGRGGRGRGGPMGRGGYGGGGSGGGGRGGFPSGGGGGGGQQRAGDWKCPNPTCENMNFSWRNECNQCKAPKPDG
Test: ITC; N = 0.7; 5 mM beta-mercaptoethanol; ITC: 10 mM HEPES pH 7.0, 20 mM Na2SO4 (+5 mM beta-mercaptoethanol for RRM-RanBP2 constructs), 298 K, 1 mM RNA into 100 uM protein. NMR: 20 mM Na phosphate pH 6.2, 25 mM NaCl, 5% D2O (RRM) or 25 mM Na2SO4, 5 mM beta-mercaptoethanol (TAF15-RRM-RanBP2), 298 K
Conditions: protein: recombinant; hairpin, 8 bp stem, 9 nt loop
measuredQuantity: Kd (µM)
Report as a plain number; the unit µM is understood.

The measured Kd associated with CGUAUCUUUAACUACUCAAGAUACG (structured_RNA) [SON stem-loop RNA] reads 8
